- assayDetails: Binding affinity to bacterial prepro-SleC assessed as dissociation constant by MST assay
- Set-up: species or system Bacteria
measurementLabel: pKd
Would you please state pKd, meaning minus log10 of the concentration in mol/L, as a bare number?

Asked: Given the compound Oc1ccc(-c2nc(-c3ccc(OC4CCCC4)cc3)no2)cc1 , write its reported pKd.
Given back: 5.37

* * *

- Test system: Clostridioides difficile
- assayDetails: Antibacterial activity against Clostridium difficile ATTC43255 assessed as spore germination inhibition at 45 uM incubated for 60 mins by spectrometry relative to control
- Assay type: functional
- experimentalConditions: ATTC43255, 1 h
measurementLabel: inhibition at 45 µM

Asked: Item c1cc(-c2noc(-c3ccc4c(c3)CCN4)n2)ccc1OC1CCCC1 : provide inhibition at 45 µM
Given back: < 10%

---
Asked: State its inhibition at 45 µM: Cl.NCc1ccc(-c2nc(-c3ccnc(Oc4ccc(C(F)(F)F)cc4)c3)no2)cc1
Given back: 84%

Asked: Entry NCc1ccc(-c2nc(-c3ccc(OC(F)(F)F)cc3)no2)cc1 needs its inhibition at 45 µM filled in; supply it.
Given back: 33%

Asked: Return inhibition at 45 µM (reported value) for this compound: CC(C)(C)OC(=O)NCc1ccc(-c2nc(-c3ccc(Oc4ccc(F)c(F)c4)cc3)no2)cc1
Given back: < 10%
